Where these numbers come from: patent US6979686B1

molecular target: human p38 kinase alpha (Homo sapiens, UniProt Q16539); construct: GST (N, cleaved yes); made in house; host or cells: E. coli DH10B; assay: p38 kinase in vitro assay, phosphorylation of biotinylated PHAS-I with 32P-ATP; format: biochemical; details: in vitro P38-alpha kinase inhibition; read-out: P38 alpha kinase IC50
Sequence (Q16539 whole entry): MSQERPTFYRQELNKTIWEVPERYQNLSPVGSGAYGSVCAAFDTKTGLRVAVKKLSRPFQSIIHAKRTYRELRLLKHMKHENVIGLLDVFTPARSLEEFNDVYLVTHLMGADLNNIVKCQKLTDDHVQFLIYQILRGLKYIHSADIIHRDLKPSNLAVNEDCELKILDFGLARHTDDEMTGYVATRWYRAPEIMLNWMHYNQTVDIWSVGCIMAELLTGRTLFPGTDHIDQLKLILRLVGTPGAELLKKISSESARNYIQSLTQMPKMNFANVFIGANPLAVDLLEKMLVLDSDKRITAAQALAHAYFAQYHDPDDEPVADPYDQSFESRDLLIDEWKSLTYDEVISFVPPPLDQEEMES

{"compound": "CNC(=O)CCC(NC(=O)c1ccc(F)cc1)c1[nH]nc(-c2ccc(F)cc2)c1-c1ccncc1 (centres unmarked) [Example B-0862]", "studyTarget": "human p38 kinase alpha (Homo sapiens, UniProt Q16539)", "comparisonSymbol": "=", "IC50 [nM]": 2150}
{"compound": "CC(=O)Nc1ccc(S(=O)(=O)NCCc2[nH]nc(-c3ccc(F)cc3)c2-c2ccncc2)cc1 [Example B-1059]", "studyTarget": "human p38 kinase alpha (Homo sapiens, UniProt Q16539)", "comparisonSymbol": "=", "IC50 [nM]": 180}
{"compound": "O=S(=O)(NC(Cc1ccccc1)c1[nH]nc(-c2ccc(F)cc2)c1-c1ccncc1)c1ccccc1 (centres unmarked) [Example B-0708]", "studyTarget": "human p38 kinase alpha (Homo sapiens, UniProt Q16539)", "comparisonSymbol": "=", "IC50 [nM]": 2100}
{"compound": "O=S(=O)(NCCc1[nH]nc(-c2ccc(F)cc2)c1-c1ccncc1)c1cccc(Cl)c1 [Example B-1090]", "studyTarget": "human p38 kinase alpha (Homo sapiens, UniProt Q16539)", "comparisonSymbol": "<", "IC50 [nM]": 100}
{"compound": "CC(NS(=O)(=O)C(F)(F)F)c1[nH]nc(-c2ccc(F)cc2)c1-c1ccncc1 (centres unmarked) [Example B-0568]", "studyTarget": "human p38 kinase alpha (Homo sapiens, UniProt Q16539)", "comparisonSymbol": "=", "IC50 [nM]": 1220}
{"compound": "O=C(NCCc1[nH]nc(-c2ccc(F)cc2)c1-c1ccncc1)c1ccccc1Br [Example B-1154]", "studyTarget": "human p38 kinase alpha (Homo sapiens, UniProt Q16539)", "comparisonSymbol": "=", "IC50 [nM]": 85}
{"compound": "CNC(=O)CCC(NC(=O)c1ccncc1)c1[nH]nc(-c2ccc(F)cc2)c1-c1ccncc1 (centres unmarked) [Example B-0875]", "studyTarget": "human p38 kinase alpha (Homo sapiens, UniProt Q16539)", "comparisonSymbol": "=", "IC50 [nM]": 2130}
{"compound": "CCCNC(=O)NC(Cc1ccccc1)c1[nH]nc(-c2ccc(F)cc2)c1-c1ccncc1 (centres unmarked) [Example B-0780]", "studyTarget": "human p38 kinase alpha (Homo sapiens, UniProt Q16539)", "comparisonSymbol": "=", "IC50 [nM]": 1100}

* * *

biological target: human p38 kinase alpha (Homo sapiens); construct: GST (N, cleaved yes); made in house; host or cells: E. coli DH10B; experiment: p38 kinase in vitro assay, phosphorylation of biotinylated PHAS-I with 32P-ATP; type: biochemical; conditions: in vitro P38-alpha kinase; read-out: P38 alpha kinase IC50
Property: IC50; scope: individual compounds
measuredAttribute: IC50 (µM)

{"inputSmiles": "O=C(c1c(F)cccc1C(F)(F)F)N1CCC(c2[nH]nc(-c3ccc(F)cc3)c2-c2ccncc2)CC1", "measuredAttribute": "IC50", "unitsOfMeasure": "µM", "experimentalResult": 0.6}
{"inputSmiles": "CN(C)CCNC(=O)NCCCc1[nH]nc(-c2ccc(F)cc2)c1-c1ccncc1", "measuredAttribute": "IC50", "unitsOfMeasure": "µM", "experimentalResult": 0.023}
{"inputSmiles": "O=C(NCc1[nH]nc(-c2ccc(F)cc2)c1-c1ccncc1)[C@@H]1CCCN1", "measuredAttribute": "IC50", "unitsOfMeasure": "µM", "experimentalResult": 1.31}
{"inputSmiles": "O=S(=O)(NCCCc1[nH]nc(-c2ccc(F)cc2)c1-c1ccncc1)c1cc(Cl)cc(Cl)c1", "measuredAttribute": "IC50", "unitsOfMeasure": "µM", "experimentalResult": 0.46}
